The following binders are shown together with reported ADCC reporter bioassay, Top (MFI) values.
Target: T1, human AMHRII (anti-Mullerian hormone receptor type 2) (human, UniProt Q16671 18-573)
T1 sequence (looked up): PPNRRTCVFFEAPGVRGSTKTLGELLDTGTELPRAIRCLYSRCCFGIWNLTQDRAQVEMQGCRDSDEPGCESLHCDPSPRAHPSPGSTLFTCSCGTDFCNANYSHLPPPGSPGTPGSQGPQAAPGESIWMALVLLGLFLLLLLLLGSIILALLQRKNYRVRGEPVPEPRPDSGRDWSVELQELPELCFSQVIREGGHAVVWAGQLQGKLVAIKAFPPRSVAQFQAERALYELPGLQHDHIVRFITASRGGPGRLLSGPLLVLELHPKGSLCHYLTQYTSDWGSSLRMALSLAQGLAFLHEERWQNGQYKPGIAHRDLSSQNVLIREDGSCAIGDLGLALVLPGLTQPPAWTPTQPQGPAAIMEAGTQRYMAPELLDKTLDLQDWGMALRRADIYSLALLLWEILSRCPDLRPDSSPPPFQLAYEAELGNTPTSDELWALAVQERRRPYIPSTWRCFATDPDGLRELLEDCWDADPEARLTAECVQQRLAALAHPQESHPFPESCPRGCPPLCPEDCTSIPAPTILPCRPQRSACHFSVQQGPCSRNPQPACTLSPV
Assay: cell-based or functional assay
Report the figure in MFI without appending any unit label.

binder="xi31D9B3 hIgG1 (antibody, V domains shown, Murine variable domains in human chimeric format, human IgG1; also called xi31D9B3 hlgG1; 31D9B3 hlgG1) VH: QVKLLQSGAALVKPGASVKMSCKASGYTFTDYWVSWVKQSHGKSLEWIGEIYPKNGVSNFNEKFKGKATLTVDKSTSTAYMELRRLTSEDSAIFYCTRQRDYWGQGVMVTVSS VL: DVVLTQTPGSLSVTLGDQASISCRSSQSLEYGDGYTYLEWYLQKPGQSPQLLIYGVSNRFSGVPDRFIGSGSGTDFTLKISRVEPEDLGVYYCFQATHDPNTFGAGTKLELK" test_result=14400

Consider the record given below.
Please give the measured ADCC reporter bioassay, Top (MFI) for this binder: xi108F3D1E9 hIgG1 (antibody, V domains shown, Murine variable domains in human chimeric format, human IgG1; also called xi108F3D1E9 hlgG1; 108F3D1E9 (chimeric)) VH: DVQLQESGPGLVKPSQSLSLTCTVTGYSITSDFAWNWIRQFPGNKLEWMGYINFSGSTSYNPSLKSRISITRDTSKNQFFLQLNSVTTEDTATYYCAGSRYSWFAYWGQGTLVTVSA VL: DIVLTQSPASLAVSLGQRATISCRASESVDTYGNSFMHWYQQKPGQPPKLLIYRASNLESGIPARFSGSGSRTDFTLTINPVEADDVATYYCQQSNEDPYTFGGGTKLEIK 13300
